Data provenance is patent US8071625B2.

Biological target: crosslinked smooth muscle actomyosin (chicken gizzard smooth muscle myosin subfragment-1 crosslinked to cardiac or skeletal actin) (Gallus gallus)
Heads up, the class ranges for IC50 are group 1 = under 400 nM, group 2 = from 400 nM up to 3000 nM, group 3 = 3000 nM and over

{"compound": "Cc1ccc(NC(=O)OCC2(C(=O)NCc3ccccc3Cl)CCN(C(=O)CN)CC2)cc1C(F)(F)F", "group.label": "group 2"}
{"compound": "Cc1ccc(NC(=O)OCC2(C(=O)NCc3ccccc3Cl)CCN(C(=O)CN)CC2)cc1F", "group.label": "group 2"}
{"compound": "CCc1ccc(NC(=O)OCCC(C)(C)C(=O)NCc2ccccc2Cl)cc1", "group.label": "group 1"}
{"compound": "CCc1ccc(NC(=O)OCC(C)(C)C(=O)NCc2ccccc2Cl)cc1", "group.label": "group 2"}
{"compound": "NCC(=O)N1CCC(COC(=O)Nc2ccc(C(F)(F)F)cc2)(C(=O)NCc2cccc(Cl)c2F)CC1", "group.label": "group 1"}
{"compound": "CCc1ccc(NC(=O)OCC2(C(=O)NCc3ccc(F)cc3Cl)CCN(C(=O)CN)CC2)cc1", "group.label": "group 1"}
{"compound": "CCc1ccc(NC(=O)OCC(C)(NC(C)=O)C(=O)NCc2ccccc2Cl)cc1 (stereo not drawn)", "group.label": "group 3"}
{"compound": "CCc1ccc(NC(=O)OCC2(C(=O)NCc3ccccc3C)CCN(C(=O)CNC(=O)OC(C)(C)C)CC2)cc1", "group.label": "group 2"}
{"compound": "CCc1ccc(NC(=O)OCC2(C(=O)NCc3ccccc3)CCN(C(=O)CNC(=O)OC(C)(C)C)CC2)cc1", "group.label": "group 3"}
